# Test system: A-431
# test-name: Decrease in CDC25C protein expression level in human A431 cell extract at 50 uM after 24 hrs by Western blot analysis
# Format: functional, cell-based
The source made the active and inactive calls. The rule behind the calls is not given here.
Outcomes: active, inactive

| given-smiles | system | classification |
| --- | --- | --- |
| O=C1C=CC(=O)c2c1ccc1c2c(=O)oc2cc(Cl)ccc21 | A-431 | inactive |
| O=C1C=CC(=O)c2c1ccc1c2c(=O)[nH]c2ccccc21 | A-431 | active |
| O=C1C=CC(=O)c2c1ccc1c2c(=O)[nH]c2ccc(Cl)cc21 | A-431 | active |
| O=C1C=CC(=O)c2c1ccc1c2c(=O)oc2ccccc21 | A-431 | active |

---

# system: M-phase inducer phosphatase 1 (Homo sapiens)
# Sequence (P30304 whole entry): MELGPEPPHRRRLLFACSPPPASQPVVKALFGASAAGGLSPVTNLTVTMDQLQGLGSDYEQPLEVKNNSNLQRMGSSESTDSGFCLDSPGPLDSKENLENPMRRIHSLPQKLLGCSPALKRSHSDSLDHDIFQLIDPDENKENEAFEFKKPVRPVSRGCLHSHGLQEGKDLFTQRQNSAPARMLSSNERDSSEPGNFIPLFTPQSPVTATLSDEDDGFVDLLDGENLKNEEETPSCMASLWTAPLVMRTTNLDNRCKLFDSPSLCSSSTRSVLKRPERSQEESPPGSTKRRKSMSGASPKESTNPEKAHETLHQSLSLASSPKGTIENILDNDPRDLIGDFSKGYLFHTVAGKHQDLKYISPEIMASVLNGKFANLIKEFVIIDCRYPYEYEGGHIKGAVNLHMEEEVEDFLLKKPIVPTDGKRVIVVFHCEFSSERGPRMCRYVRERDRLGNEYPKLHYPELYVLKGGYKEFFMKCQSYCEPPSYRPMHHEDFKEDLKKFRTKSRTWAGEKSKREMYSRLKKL
# test-name: Inhibition of recombinant human full length GST-tagged CDC25A expressed in Escherichia coli BL21-DE3 pLysS using 3-O-methylfluorescein phosphate as substrate after 2 hrs by fluorimetric analysis
pIC50: −log10 of the molar value.

| given-smiles | pIC50 |
| --- | --- |
| O=C1C=CC(=O)c2c1ccc1c2c(=O)[nH]c2ccccc21 | 5.11 |
| O=C1C=CC(=O)c2c1ccc1c2c(=O)oc2c3ccccc3ccc12 | 5.82 |
| CCN(CC)c1ccc2c(c1)oc(=O)c1c3c(ccc12)C(=O)C=CC3=O | 5.92 |
| O=C1C=CC(=O)c2c1ccc1c2c(=O)oc2cc(O)ccc21 | 5.18 |
| O=C1C=CC(=O)c2c1ccc1c2c(=O)[nH]c2ccc(Cl)cc21 | 5.36 |
| O=C1C=CC(=O)c2c1ccc1c2c(=O)oc2ccc(Cl)cc21 | 5.59 |

---

# system: M-phase inducer phosphatase 3 (Homo sapiens)
# Sequence (P30307 whole entry): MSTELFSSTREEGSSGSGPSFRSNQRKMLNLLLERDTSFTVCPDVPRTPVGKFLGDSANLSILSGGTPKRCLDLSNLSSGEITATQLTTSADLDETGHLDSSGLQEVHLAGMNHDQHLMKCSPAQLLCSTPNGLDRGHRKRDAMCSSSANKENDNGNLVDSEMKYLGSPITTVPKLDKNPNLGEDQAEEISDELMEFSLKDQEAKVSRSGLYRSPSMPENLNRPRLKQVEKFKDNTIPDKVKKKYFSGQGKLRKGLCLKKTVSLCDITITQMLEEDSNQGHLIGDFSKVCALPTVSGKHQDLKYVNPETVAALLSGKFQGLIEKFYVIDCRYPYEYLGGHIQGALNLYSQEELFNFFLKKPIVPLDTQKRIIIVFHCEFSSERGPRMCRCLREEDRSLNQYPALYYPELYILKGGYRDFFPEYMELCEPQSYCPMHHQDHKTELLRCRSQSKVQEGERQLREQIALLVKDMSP
# test-name: Inhibition of recombinant human full length GST-tagged CDC25C expressed in Escherichia coli BL21-DE3 pLysS using 3-O-methylfluorescein phosphate as substrate after 2 hrs by fluorimetric analysis
pIC50: −log10 of the molar value.

| given-smiles | pIC50 |
| --- | --- |
| COc1ccc2c(c1)oc(=O)c1c3c(ccc12)C(=O)C=CC3=O | 6.01 |
| Cc1ccc2c(c1)oc(=O)c1c3c(ccc12)C(=O)C=CC3=O | 6.00 |
| O=C1C=CC(=O)c2c1ccc1c2c(=O)oc2c3ccccc3ccc12 | 7.00 |
| CCN(CC)c1ccc2c(c1)oc(=O)c1c3c(ccc12)C(=O)C=CC3=O | 6.52 |
| O=C1C=CC(=O)c2c1ccc1c2c(=O)[nH]c2cc(F)ccc21 | 5.35 |
